Tested on: EKVX NSCLC
Experiment: NCI-60 one-dose screen, 48 h (100 = growth as untreated, 0 = no growth, -100 = all killed)
Details: 10 µM unless noted
About 83,000 compounds went through this panel and 20% of them were active in at least one assay; those are over-represented in the sample as a whole.
The following molecules are listed with their measured growth values.
Only the number, expressed in %, is required.

Consider the following illustrative entries.
molecule	target-or-system	numeric-result
O=C(Nc1cccc2c(O)c(N=Nc3ccc(S(=O)(=O)Nc4nccs4)cc3)cc(N=Nc3ccc(S(=O)(=O)Nc4nccs4)cc3)c12)C(Cl)Cl	EKVX NSCLC	90.5
COc1cccc(-c2nn(-c3ccccc3)cc2-c2ccnc(NCCCNC(=O)c3ccc(F)cc3)c2)c1	EKVX NSCLC	44.5
C=C1C(=O)O[C@H]2[C@H]1CC/C(CNC(=O)/C=C/c1ccc(Cl)cc1Cl)=C\CC[C@@]1(C)O[C@@H]21	EKVX NSCLC	-35.8
CC1=NOC(=O)/C1=C\c1ccc(O)cc1	EKVX NSCLC	104
CC(=O)c1ccc(NCC(=O)Nc2ccccn2)cc1	EKVX NSCLC	101

Respond only with growth recorded for CN(C)CCCn1c(=O)c2ccccc2c2ccccc21
107

Respond only with growth recorded for CCOc1ccccc1-n1c(CN2CCN(C(=O)COc3ccc(CNCCCCCCN4C5CCCC4CC(OC(=O)Nc4cc(C)ccc4OC)C5)cc3)CC2)nc2ccccc2c1=O (centres undefined)
-92.1

Respond only with growth recorded for COc1cc(C2CC(c3cc(OC)c(OCCCOc4ccc(-n5c(/C=C/c6ccccc6)nc6ccccc6c5=O)cc4)c(OC)c3)=NO2)cc(OC)c1OC (centres undefined)
118

Respond only with growth recorded for CCOC(=O)c1c(-c2ccc(Cl)cc2)c(C#N)c(=O)n(-c2ccccc2CC)c1N
90.6

Respond only with growth recorded for COc1cc(/C=C/C(=O)c2c(C)nc3ccccc3c2/C=C/c2ccc(C)cc2)cc(OC)c1OC
34.7

###

Tested on: SK-OV-3 ovarian
Assay: NCI-60 one-dose screen, 48 h (100 = growth as untreated, 0 = no growth, -100 = all killed)
Conditions: 10 µM unless noted
About 83,000 compounds went through this panel and 20% of them were active in at least one assay; those are over-represented in the sample as a whole.
experimental-readout: growth (%)
Only the number, expressed in %, is required.

Consider the following illustrative entries.
> print(dat)
                                   compound  target.or.system  experimental.readout  measurement.unit  numeric.result
1  COc1cc2c(cc1-c1c(C)noc1C)ncc1nc(C3CCCCC3)n(C3CCC(OC(F)F)CC3)c12 (stereo not given)   SK-OV-3 ovarian                growth                 %           -2.64
2          Cn1c(=O)c2c(nc(Cl)n2CCl)n(C)c1=O   SK-OV-3 ovarian                growth                 %             115
3  CC1CC(C(C)(C)C)C(=O)C(C(C)(C)C)C1 (stereo not given)   SK-OV-3 ovarian                growth                 %             105
4  CC1(c2ccccc2)NC(=O)N(NC(=O)CSc2nc(-c3cccs3)nc3ccccc23)C1=O (stereo not given)   SK-OV-3 ovarian                growth                 %             124
5                    c1c[nH]c(CNC2CCCCC2)c1   SK-OV-3 ovarian                growth                 %             102

Respond only with growth recorded for C=CCSc1nc2ccccc2cc1/C=N/O
68.2

Respond only with growth recorded for COc1ccc(-c2[nH]c(=S)n(C(CC3(C)NCC(=O)N3n3c(-c4ccccc4)cc(C)nc3=S)c3ccc(OC)cc3)c(=O)c2Br)cc1 (stereo not given)
62.4
